# experiment-summary: Cytotoxicity against interleukin-3 independent mouse BA/F3 cells expressing PIM1 after 72 hrs by CellTiter-Glo assay
# Format: functional, cell-based
# condition-label: BaF3, 72 h
pIC50: −log10 of the molar value.
readout-label: pIC50

In [3]: df
Out[3]:
                                item_smiles   val
0  CCn1cc(-c2cc3c(-c4cccc(N5CCNCC5)n4)n[nH]c3cn2)cn1  7.11

Hey, just so you know, these numbers are from ChEMBL document CHEMBL3632547.
